B1: Hairpin Ribozyme (parent)
chain: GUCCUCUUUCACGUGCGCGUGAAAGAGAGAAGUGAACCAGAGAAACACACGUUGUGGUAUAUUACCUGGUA

Variants of: B1
Assay: self-cleavage, relative activity (ratio to wild type); higher = more cleavage; co-transcriptional
Readout Label: self-cleavage
Form: value (number only, do not type unit).

Query block: Look up self-cleavage: GUCCUCUUUCACGUGCGCGUAAAAGAGAGAAGUGAACCAGAGAAACGCACGUUGUGGUAUAUUACCUGGUA [G21A A47G]
Result block: 0.2

Query block: Would you mind doing GUCCUCUUUCACGUGCGCGUGAAAGAGAGAAGUGAACCAGAGAAACACACGUUGUCGUAUAUUACCAGGUA [G56C U67A] as well?
Result block: 0.205

Query block: Would you mind doing GUCCACUUUCACGUGCGCGUGAAAGAGAGAAGUGAACCAGAGAAACACACUUUGUGGUAUAUUACCUGGUA [U5A G51U] as well?
Result block: 0.389

Query block: Would you mind doing AUCCUCUUUCACGUGCGCGUGAAAGAGAGAAGUGAACCAAAGAAACACACGUUGUGGUAUAUUACCUGGUA [G1A G40A] as well?
Result block: 0.199

Query block: Would you mind doing GUCCUCUUGCACGUGCGCGUGAAAGAGAGAAGUGAACCGGAGAAACACACGUUGUGGUAUAUUACCUGGUA [U9G A39G] as well?
Result block: 0.206
